- assay system: UniProt:Q9HBX9
- Sequence (Q9HBX9 whole entry): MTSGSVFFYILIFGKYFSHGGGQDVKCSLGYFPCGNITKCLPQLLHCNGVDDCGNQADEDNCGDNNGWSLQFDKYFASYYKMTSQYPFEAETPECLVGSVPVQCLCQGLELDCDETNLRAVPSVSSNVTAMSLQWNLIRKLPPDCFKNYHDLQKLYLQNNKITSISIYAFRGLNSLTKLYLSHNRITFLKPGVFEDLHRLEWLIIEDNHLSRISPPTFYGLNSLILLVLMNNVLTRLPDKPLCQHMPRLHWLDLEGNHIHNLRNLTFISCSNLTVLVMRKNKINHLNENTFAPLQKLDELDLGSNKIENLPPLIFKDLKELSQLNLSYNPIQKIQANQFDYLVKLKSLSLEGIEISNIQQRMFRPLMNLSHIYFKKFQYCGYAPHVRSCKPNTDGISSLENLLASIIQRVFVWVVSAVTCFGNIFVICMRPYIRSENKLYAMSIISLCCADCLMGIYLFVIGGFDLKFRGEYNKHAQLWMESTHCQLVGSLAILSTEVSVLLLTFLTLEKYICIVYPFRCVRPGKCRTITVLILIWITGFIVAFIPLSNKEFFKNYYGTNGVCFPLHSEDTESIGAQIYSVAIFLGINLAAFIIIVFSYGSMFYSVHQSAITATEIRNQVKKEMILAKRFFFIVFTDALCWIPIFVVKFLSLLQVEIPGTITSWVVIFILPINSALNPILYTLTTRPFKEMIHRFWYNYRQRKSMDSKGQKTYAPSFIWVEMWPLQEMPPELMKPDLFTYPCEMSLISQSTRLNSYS
- test description: RXFP1 Hu cAMP (Test A)
- Assay type: cell-based
- Parameters: expressed in transfected cells; host or cells: Jump-In T-REx CHO-K1 cells (ThermoFisher), induced with 10 ng/ml doxycycline for 24 h
- condition info: RXFP1 Hu cAMP; read-out: Test A EC50
property: EC50

Prompt line: Dear colleague, I am looking for the recorded EC50 of the following compound: COc1cc(C#N)c(O[C@H]2CC[C@@](C)(C(=O)O)CC2)cc1C(=O)N[C@@H]1[C@H]2CC[C@H](C2)[C@@H]1C(=O)NCC1(O)CCCC1 [Example 74]
Response line: > 5 µM

Prompt line: Find the recorded EC50 belonging to COc1cc(F)c(O[C@H]2CC[C@@H](C(=O)OC)CC2)cc1C(=O)N[C@@H]1C[C@H](O)C[C@@H]1C(=O)Nc1cccc(S(=O)(=O)C(F)(F)F)c1 (racemic) [Example 496] and report it.
Response line: > 40 µM

Prompt line: I have this compound here, COc1cc(F)c(OC2CCC(CO)(C(=O)O)CC2)cc1C(=O)N[C@H]1[C@H]2CC[C@H](C2)[C@H]1C(=O)Nc1cccc(S(=O)(=O)C(F)(F)F)c1 (relative stereo) [Example 585] , and I need its recorded EC50.
Response line: 0.24 µM

---
Prompt line: Recorded EC50 of COCc1cc(F)c(O[C@H]2CC[C@@](C)(C(=O)O)CC2)cc1C(=O)N[C@@H]1[C@H]2CC[C@H](C2)[C@@H]1C(=O)NCC1(C)CCC1 [Example 380] , please.
Response line: > 2.5 µM

Prompt line: Need EC50 of Cn1ncc2cc(C(=O)N[C@@H]3[C@H]4CC[C@H](C4)[C@@H]3C(=O)NCC3(C)CCC3)cc(O[C@H]3CC[C@@](C)(C(=O)O)CC3)c21 [Example 378] , thanks.
Response line: > 2.5 µM
